Readings of pIC50 for the listed compounds
Tested on: Huh1 human liver cancer cells
experimentSummary: Tumor cell proliferation inhibition (CCK-8), Huh1
Assay type: cell-based
cond: Homo sapiens, HuH-1, 48 h, read-out: IC50 Huh1
pIC50: −log10 of the molar value.
assayReadout: pIC50

>>> numericresult("C=C[C@]1(C)CC[C@@H](C(=C)CN2CC3CN(C)CC3C2)C[C@H]1C(=C)C (some centres unmarked)")
4.61
>>> numericresult("C#CCCC(=O)NCCOCCOCCC(=O)N[C@@H](CCC1(C)N=N1)C(=O)NCCOCCOCCN1CC2CN(CC(=C)[C@@H]3CC[C@@](C)(C=C)[C@H](C(=C)C)C3)CC2C1 (some centres unmarked)")
4.77

---

Readings of pIC50 for the listed compounds
Test system: Huh1 human liver cancer cells
experimentSummary: Tumor cell proliferation inhibition (CCK-8), Huh1
Type: cell-based
cond: Homo sapiens, HuH-1; Huh1 cells; 48 h; CCK-8; read-out: IC50 Huh1
pIC50: −log10 of the molar value.
assayReadout: pIC50

>>> numericresult("C#CCCC(=O)NCCOCCOCCC(=O)N[C@H](CCC1(C)N=N1)C(=O)NCCOCCOCCN1CCN(CC(=C)[C@@H]2CC[C@@](C)(C=C)[C@H](C(=C)C)C2)CC1 [Compound 3]")
4.64
>>> numericresult("C#CCCC(=O)NCCOCCOCCC(=O)N[C@H](CCC1(C)N=N1)C(=O)N1CC2CN(CC(=C)[C@@H]3CC[C@@](C)(C=C)[C@H](C(=C)C)C3)CC2C1 (some centres unmarked) [Compound 4]")
4.26
>>> numericresult("C#CCCC(=O)NCCOCCOCCC(=O)N[C@H](CCC1(C)N=N1)C(=O)NCCN1CCN(CC(=C)[C@@H]2CC[C@@](C)(C=C)[C@H](C(=C)C)C2)CC1 [Compound 2]")
4.70
>>> numericresult("C=C[C@]1(C)CC[C@@H](C(=C)C)C[C@H]1C(=C)C [β-elemene, reference compound]")
3.51
>>> numericresult("C#CCCC(=O)NCCOCCOCCC(=O)N[C@H](CCC1(C)N=N1)C(=O)N1CCN(CC(=C)[C@@H]2CC[C@@](C)(C=C)[C@H](C(=C)C)C2)CC1 [Compound 1]")
4.73
